system: HCT-116 colon; test: NCI-60 one-dose screen, 48 h (100 = growth as untreated, 0 = no growth, -100 = all killed); conditions: 10 µM unless noted
Compounds without any hit were thinned out: in the full panel of roughly 83,000, 20% have a hit. Active and inactive are the calls of the source. Rule for the calls: active = growth percent below 10; inactive = the rest.
Assignment: determine reported growth for the given molecules.

The following molecules have reported results that may help.
Recorded growth of `Nc1ccc2[nH]c(-c3ccccc3)cc(=O)c2c1` , please. 81% (inactive)

Recorded growth of `COc1ccc(NC(=S)Nc2ccccn2)cc1` , please. 95.4% (inactive)

In the following, a different molecule is considered.
Recorded growth of `Cc1ccc(-c2noc(C)n2)cc1` , please. 101% (inactive)

Taken from PubChem BioAssay (NCI).
